Target: T1, TFECDHis (extracellular domain of tissue factor, amino acid 1-251, with C-terminal His tag) (human, UniProt P13726 33-251)
T1 construct: range 1-251; The stated range 1-251 starts at residue 1 of the precursor; also called recombinant extracellular domain of TF
Test: ELISA, coated TFECDHis
Exercise: for every item that follows, state its recorded EC50.
Answer with a number only, understood to be in µg/mL.

Q: Give me measured EC50, please, for this binder: Anti-TF HuMab 098 (antibody, IgG1, V domains shown, full length, fully human monoclonal IgG1,kappa; also called HuMab-TF-098) VH: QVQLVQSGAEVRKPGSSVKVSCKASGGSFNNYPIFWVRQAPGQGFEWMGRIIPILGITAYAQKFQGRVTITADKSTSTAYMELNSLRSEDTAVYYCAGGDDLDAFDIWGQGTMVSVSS VL: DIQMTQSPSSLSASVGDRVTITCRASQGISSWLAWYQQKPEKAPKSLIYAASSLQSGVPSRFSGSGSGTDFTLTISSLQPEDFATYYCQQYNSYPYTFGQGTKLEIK
A: 0.422

Q: Give me measured EC50, please, for this binder: Anti-TF HuMab 011 (antibody, IgG1, V domains shown, full length, fully human monoclonal IgG1,kappa; also called HuMab-TF-011) VH: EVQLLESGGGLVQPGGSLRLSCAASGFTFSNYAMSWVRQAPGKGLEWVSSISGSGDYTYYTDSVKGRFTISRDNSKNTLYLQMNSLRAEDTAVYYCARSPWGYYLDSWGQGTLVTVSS VL: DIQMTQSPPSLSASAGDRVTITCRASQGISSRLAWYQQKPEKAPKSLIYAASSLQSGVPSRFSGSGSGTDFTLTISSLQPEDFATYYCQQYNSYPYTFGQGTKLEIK
A: 0.373

Q: Give me measured EC50, please, for this binder: HuMab-TF-111-vcMMAE (antibody, IgG1, V domains shown, vcMMAE drug-linker alkylated to cysteines of the reduced antibody (positions not given), DAR 4.3 by RP-HPLC, 4.1 by HIC) VH: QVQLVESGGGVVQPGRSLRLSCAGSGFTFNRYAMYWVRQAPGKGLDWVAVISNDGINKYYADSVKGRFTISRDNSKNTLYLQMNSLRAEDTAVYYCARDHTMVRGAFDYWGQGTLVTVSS VL: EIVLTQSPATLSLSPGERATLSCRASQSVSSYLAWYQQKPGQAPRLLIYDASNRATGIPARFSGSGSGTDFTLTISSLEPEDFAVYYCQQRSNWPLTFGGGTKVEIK
A: 0.464

Q: Give me measured EC50, please, for this binder: HuMab-TF-111-mcMMAF (antibody, IgG1, V domains shown, mcMMAF drug-linker alkylated to cysteines of the reduced antibody (positions not given), DAR 4.1 by RP-HPLC, 4.2 by HIC) VH: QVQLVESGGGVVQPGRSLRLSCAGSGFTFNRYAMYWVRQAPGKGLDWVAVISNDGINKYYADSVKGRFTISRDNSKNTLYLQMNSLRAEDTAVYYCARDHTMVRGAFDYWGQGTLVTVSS VL: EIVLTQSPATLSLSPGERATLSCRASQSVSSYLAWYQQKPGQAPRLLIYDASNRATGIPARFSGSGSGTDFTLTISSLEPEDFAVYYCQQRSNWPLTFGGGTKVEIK
A: 0.416

Q: Give me measured EC50, please, for this binder: HuMab-TF-011-vcMMAE (antibody, IgG1, V domains shown, vcMMAE drug-linker alkylated to cysteines of the reduced antibody (positions not given), DAR 3.9 by RP-HPLC, 3.9 by HIC) VH: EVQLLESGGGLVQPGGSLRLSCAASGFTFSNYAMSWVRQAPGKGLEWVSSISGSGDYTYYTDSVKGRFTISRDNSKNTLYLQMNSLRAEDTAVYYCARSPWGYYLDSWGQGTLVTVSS VL: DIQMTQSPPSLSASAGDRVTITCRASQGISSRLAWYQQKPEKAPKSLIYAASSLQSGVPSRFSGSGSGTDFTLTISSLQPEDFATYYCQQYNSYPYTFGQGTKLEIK
A: 0.469

Q: Give me measured EC50, please, for this binder: HuMab-TF-098-mcMMAF (antibody, IgG1, V domains shown, mcMMAF drug-linker alkylated to cysteines of the reduced antibody (positions not given), DAR 4.0 by RP-HPLC, 3.9 by HIC) VH: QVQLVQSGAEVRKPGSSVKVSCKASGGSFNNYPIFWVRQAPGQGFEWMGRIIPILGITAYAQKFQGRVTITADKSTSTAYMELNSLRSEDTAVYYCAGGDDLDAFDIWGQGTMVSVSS VL: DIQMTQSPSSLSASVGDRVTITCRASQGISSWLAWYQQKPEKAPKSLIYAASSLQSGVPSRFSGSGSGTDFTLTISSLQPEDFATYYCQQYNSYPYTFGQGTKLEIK
A: 0.401
